- test: Absorption after oral administration and release of the phosphate group (blood concentration by HPLC)
- Type: in vivo
- experimentalContext: rat, blood; SD rats, oral 30 mg/kg, 1 hr after administration; read-out: Blood concentration of the administered compound (unchanged)
- Procedure: Each blood sample was centrifuged (10,000 rpm x 5 min.) and the supernatant was applied onto a pretreatment column (Sep-Pack C18 Vac, Waters). After the column was rinsed with distilled water and 40% methanol, elution was carried out in 10% steps from 50% methanol to 100% methanol and 50 µl of the eluate was injected into an HPLC. From the concentration value thus found, the blood concentration was calculated.
parameterMeasured: level at 1 h (ng/mL)
// note: answer is a bare numeric in ng/mL

>  <compound>
C/C=C/C[C@@H](C)[C@@H](O)[C@H]1C(=O)N[C@@H](CC)C(=O)N(C)CC(=O)N(C)[C@@H](CC(C)C)C(=O)N[C@@H](C(C)C)C(=O)N(C)[C@@H](CC(C)C)C(=O)N[C@@H](C)C(=O)N[C@H](CO)C(=O)N(C)[C@@H](CC(C)C)C(=O)N(C)[C@@H](CC(C)C)C(=O)N(C)[C@@H](C(C)C)C(=O)N1C [[D-serine^8]cyclosporin A, reference compound]

>  <unitLabel>
ng/mL

>  <level at 1 h>
4320

$$$$

Give its level at 1 h value. Item: C/C=C/C[C@@H](C)[C@@H](O)[C@H]1C(=O)N[C@@H](CC)C(=O)N(C)CC(=O)N(C)[C@@H](CC(C)C)C(=O)N[C@@H](C(C)C)C(=O)N(C)[C@@H](CC(C)C)C(=O)N[C@@H](C)C(=O)N[C@H](COP(=O)(O)O)C(=O)N(C)[C@@H](CC(C)C)C(=O)N(C)[C@@H](CC(C)C)C(=O)N(C)[C@@H](C(C)C)C(=O)N1C [[Phosphono-D-serine^8]cyclosporin A, [phosphono-D-serine^8]cyclosporin A]
813
